# protocol_conditions: rat, microsomes
# Description: Half life in rat liver microsomes
readout_type: t1/2

INSERT INTO results (molecular_string, result) VALUES
  ('O=C(Nc1cccc(S(=O)(=O)C(F)(F)F)c1)c1ccccc1NC(=O)c1ccccc1OCC(F)(F)F', '> 30 min'),
  ('CCOc1ccccc1C(=O)Nc1ccccc1C(=O)Nc1cccc(S(=O)(=O)C(F)(F)F)c1', '> 30 min'),
  ('CCOc1ccccc1C(=O)Nc1ncccc1C(=O)Nc1cccc(S(=O)(=O)C(F)(F)F)c1', '19.85 min'),
  ('CCCOc1ccccc1C(=O)Nc1ccccc1C(=O)Nc1cccc(S(=O)(=O)C(F)(F)F)c1', '26.8 min'),
  ('COc1ccccc1C(=O)Nc1ccccc1C(=O)Nc1cccc(S(=O)(=O)C(F)(F)F)c1', '> 30 min'),
  ('CCOc1ccccc1C(=O)Nc1ccncc1C(=O)Nc1cccc(S(=O)(=O)C(F)(F)F)c1', '> 30 min'),
  ('CCOc1ccccc1C(=O)Nc1cccnc1C(=O)Nc1cccc(S(=O)(=O)C(F)(F)F)c1', '> 30 min'),
  ('CCCCOc1ccccc1C(=O)Nc1ccccc1C(=O)Nc1cccc(S(=O)(=O)C(F)(F)F)c1', '19.5 min');

###

# study_system: Relaxin receptor 1 (Homo sapiens) (UniProt Q9HBX9)
# Sequence (whole entry): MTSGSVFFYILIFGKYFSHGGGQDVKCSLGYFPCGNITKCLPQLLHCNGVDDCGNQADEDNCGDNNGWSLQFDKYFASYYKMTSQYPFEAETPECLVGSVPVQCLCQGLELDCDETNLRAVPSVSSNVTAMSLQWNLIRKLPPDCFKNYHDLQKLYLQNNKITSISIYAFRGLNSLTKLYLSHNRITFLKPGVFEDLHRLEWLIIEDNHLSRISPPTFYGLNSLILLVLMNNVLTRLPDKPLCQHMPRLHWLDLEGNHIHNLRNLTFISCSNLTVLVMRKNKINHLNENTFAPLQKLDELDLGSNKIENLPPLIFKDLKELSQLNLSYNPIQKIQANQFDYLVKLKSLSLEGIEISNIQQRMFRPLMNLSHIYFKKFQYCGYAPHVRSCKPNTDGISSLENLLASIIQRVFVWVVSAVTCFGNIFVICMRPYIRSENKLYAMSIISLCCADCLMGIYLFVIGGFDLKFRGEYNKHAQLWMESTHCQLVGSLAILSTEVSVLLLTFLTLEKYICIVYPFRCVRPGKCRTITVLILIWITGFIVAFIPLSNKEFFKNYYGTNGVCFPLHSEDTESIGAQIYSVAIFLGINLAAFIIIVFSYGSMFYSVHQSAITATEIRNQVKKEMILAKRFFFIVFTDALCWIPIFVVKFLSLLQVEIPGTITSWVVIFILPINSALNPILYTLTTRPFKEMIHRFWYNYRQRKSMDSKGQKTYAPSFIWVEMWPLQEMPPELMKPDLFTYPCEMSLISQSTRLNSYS
# Assay type: functional, cell-based
# protocol_conditions: HEK293
readout_type: Efficacy

INSERT INTO results (molecular_string, result) VALUES
  ('CCOc1ccccc1C(=O)Nc1cccnc1C(=O)Nc1cccc(S(=O)(=O)C(F)(F)F)c1', '73%'),
  ('COc1cccc(OC)c1C(=O)Nc1ccccc1C(=O)Nc1cccc(C(F)(F)F)c1', '42%'),
  ('CCOc1ccccc1C(=O)Nc1ccncc1C(=O)Nc1cccc(S(=O)(=O)C(F)(F)F)c1', '97%'),
  ('CCCOc1ccccc1C(=O)Nc1ccccc1C(=O)Nc1cccc(S(=O)(=O)C(F)(F)F)c1', '98%'),
  ('O=C(Nc1cccc(F)c1)c1ccccc1NC(=O)C1CCCCC1', '81%'),
  ('O=C(Nc1ccccc1C(=O)Nc1cccc(C(F)(F)F)c1)c1ccccc1', '64%'),
  ('Cc1ccccc1C(=O)Nc1ccccc1C(=O)Nc1cccc(C(F)(F)F)c1', '90%'),
  ('O=C(Nc1ccc(C(F)(F)F)cc1)c1ccccc1NC(=O)C1CCCCC1', '46%'),
  ('COc1cccc(NC(=O)c2ccccc2NC(=O)C2CCCCC2)c1', '74%');

###

# study_system: Relaxin receptor 1 (Homo sapiens)
# Type: functional, cell-based
# protocol_conditions: HEK293
Calls of active or inactive are those of the source. The calls are words filed in the database; no cut-off is given here.
readout_type: Efficacy

INSERT INTO measurements (molecular_string, result) VALUES
  ('CCOc1ccccc1C(=O)Nc1ccccc1C(=O)Nc1cccc(C(F)(F)F)c1', '94%'),
  ('O=C(Nc1cccc(C(F)(F)F)c1)c1ccccc1NC(=O)C1CCCCCC1', '75%'),
  ('CCC(CC)C(=O)Nc1ccccc1C(=O)Nc1cccc(C(F)(F)F)c1', '59%'),
  ('CCCCOc1ccccc1C(=O)Nc1ccccc1C(=O)Nc1cccc(S(=O)(=O)C(F)(F)F)c1', '98%'),
  ('O=C(Nc1cccc(S(=O)(=O)C(F)(F)F)c1)c1ccccc1NC(=O)C1CCCCC1', '87%'),
  ('O=C(Nc1cccc(-c2cccc(C(F)(F)F)c2)c1)c1ccccc1NC(=O)C1CCCCC1', 'inactive'),
  ('O=C(NCc1cccc(C(F)(F)F)c1)c1ccccc1NC(=O)C1CCCCC1', 'inactive'),
  ('CSc1cccc(NC(=O)c2ccccc2NC(=O)C2CCCCC2)c1', '84%'),
  ('O=C(Nc1cccc(C(F)(F)F)c1)c1ccccc1NC(=O)C1CCCCC1', '92%'),
  ('COCCNc1ccccc1C(=O)Nc1cccc(C(F)(F)F)c1', '63%');

###

# study_system: Relaxin receptor 1 (Homo sapiens)
# Format: functional, cell-based
# protocol_conditions: HEK293
Quick reference: Efficacy of the listed items.
readout_type: Efficacy

INSERT INTO assay_data (molecular_string, result) VALUES
  ('CCCCC(=O)Nc1ccccc1C(=O)Nc1cccc(C(F)(F)F)c1', '94%'),
  ('O=C(Nc1cccc(C(F)(F)F)c1)c1ccccc1NC(=O)c1ccccc1OC(F)(F)F', '96%'),
  ('Cc1ccc(NC(=O)c2ccccc2NC(=O)C2CCCCC2)cc1', '32%');

###

# study_system: UniProt:Q9HBX9
# Format: functional, cell-based
# protocol_conditions: HEK293
readout_type: Efficacy (%)

INSERT INTO results (molecular_string, result) VALUES
  ('CC(C)Oc1ccccc1C(=O)Nc1ccccc1C(=O)Nc1cccc(C(F)(F)F)c1', 99),
  ('CCOc1ccccc1C(=O)Nc1cnccc1C(=O)Nc1cccc(S(=O)(=O)C(F)(F)F)c1', 99),
  ('O=C(Cc1ccccc1)Nc1ccccc1C(=O)Nc1cccc(C(F)(F)F)c1', 86),
  ('O=C(Nc1cccc([N+](=O)[O-])c1)c1ccccc1NC(=O)C1CCCCC1', 93),
  ('O=C(Nc1cccc(Cl)c1)c1ccccc1NC(=O)C1CCCCC1', 89);

###

# run_description: Aqueous kinetic solubility of the compound in PBS by shake-flask method
# Assay type: physicochemical
# protocol_conditions: PBS; read-out: Kinetic_solubility
readout_type: solubility kinetic

INSERT INTO assay_data (molecular_string, result) VALUES
  ('CCOc1ccccc1C(=O)Nc1cccnc1C(=O)Nc1cccc(S(=O)(=O)C(F)(F)F)c1', '< 1000 µM'),
  ('CCOc1ccccc1C(=O)Nc1cnccc1C(=O)Nc1cccc(S(=O)(=O)C(F)(F)F)c1', '< 1000 µM'),
  ('CCCCOc1ccccc1C(=O)Nc1ccccc1C(=O)Nc1cccc(S(=O)(=O)C(F)(F)F)c1', '5.3 µM'),
  ('CCCOc1ccccc1C(=O)Nc1ccccc1C(=O)Nc1cccc(S(=O)(=O)C(F)(F)F)c1', '17 µM'),
  ('CC(C)Oc1ccccc1C(=O)Nc1ccccc1C(=O)Nc1cccc(S(=O)(=O)C(F)(F)F)c1', '7 µM'),
  ('CCOc1ccccc1C(=O)Nc1ncccc1C(=O)Nc1cccc(S(=O)(=O)C(F)(F)F)c1', '< 1000 µM');
